Biological target: P2X7-2Nβ 73–79 deletion (Homo sapiens, UniProt Q99572, DEL73-79/I21V/M24R/N16P/N25R/Q22R/R20V/S23N/T19I/Y26L)
Sequence (Q99572 with tags, fused parts or gaps N16P/T19I/R20V/I21V/Q22R/S23N/M24R/N25R/Y26L/DEL73-79): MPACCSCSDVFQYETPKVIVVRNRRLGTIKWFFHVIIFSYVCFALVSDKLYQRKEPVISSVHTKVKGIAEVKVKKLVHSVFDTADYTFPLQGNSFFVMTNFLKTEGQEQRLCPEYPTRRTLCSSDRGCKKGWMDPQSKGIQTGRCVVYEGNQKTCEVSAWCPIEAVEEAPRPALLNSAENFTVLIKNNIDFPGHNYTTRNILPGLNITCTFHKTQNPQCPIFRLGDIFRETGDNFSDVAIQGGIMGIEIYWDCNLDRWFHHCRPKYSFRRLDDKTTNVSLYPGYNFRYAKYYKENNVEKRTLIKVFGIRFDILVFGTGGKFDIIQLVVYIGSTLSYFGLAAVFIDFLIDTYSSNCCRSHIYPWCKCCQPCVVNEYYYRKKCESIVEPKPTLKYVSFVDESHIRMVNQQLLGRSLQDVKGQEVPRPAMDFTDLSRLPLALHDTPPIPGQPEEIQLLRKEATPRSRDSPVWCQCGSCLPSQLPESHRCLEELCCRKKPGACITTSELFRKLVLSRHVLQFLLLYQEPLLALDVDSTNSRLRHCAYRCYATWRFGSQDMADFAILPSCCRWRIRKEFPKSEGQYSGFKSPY
Test: Two-electrode voltage clamp of ATP-evoked currents in Xenopus oocytes
value type: pIC50
API: returns pIC50 as number; meaning -log10 of concentration in mol/L.

Cl.Clc1cccc(-c2nnnn2Cc2cccnc2)c1Cl.O [A438079] ... 6.70

Continue with the molecule presented below.
Task: So what's the measured pIC50 for this one? COc1ccc(CC(=O)NC(N=C(NC#N)Nc2cccc3ncccc23)C(C)(C)C)cc1OC (centres unmarked) [A740003]
Result: 7.10

###

Biological target: P2X7R point mutant F108C (Homo sapiens, UniProt Q99572, F108C/I21V/M24R/N16P/N25R/Q22R/R20V/S23N/T19I/Y26L)
Sequence (Q99572 1-595 N16P/T19I/R20V/I21V/Q22R/S23N/M24R/N25R/Y26L/F108C): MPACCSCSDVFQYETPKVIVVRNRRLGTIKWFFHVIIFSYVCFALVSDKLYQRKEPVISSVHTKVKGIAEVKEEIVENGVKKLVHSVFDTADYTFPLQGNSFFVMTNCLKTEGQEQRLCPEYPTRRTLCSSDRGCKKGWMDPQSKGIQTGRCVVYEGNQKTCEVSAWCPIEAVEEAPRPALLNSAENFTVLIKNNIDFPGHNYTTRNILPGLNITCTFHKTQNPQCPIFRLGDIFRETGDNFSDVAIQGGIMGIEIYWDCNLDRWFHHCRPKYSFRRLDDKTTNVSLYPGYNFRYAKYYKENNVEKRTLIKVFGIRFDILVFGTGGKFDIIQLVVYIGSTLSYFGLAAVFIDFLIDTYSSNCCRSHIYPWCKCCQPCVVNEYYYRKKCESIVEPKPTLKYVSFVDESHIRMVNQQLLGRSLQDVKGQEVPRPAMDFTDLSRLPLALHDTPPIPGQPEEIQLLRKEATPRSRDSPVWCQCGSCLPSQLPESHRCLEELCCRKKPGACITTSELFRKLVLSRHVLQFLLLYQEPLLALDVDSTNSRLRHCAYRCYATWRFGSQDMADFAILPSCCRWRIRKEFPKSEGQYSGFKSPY
Test: cell-based
value type: IC50 (µM)
State just the number; it will be interpreted in µM.

Cl.Clc1cccc(-c2nnnn2Cc2cccnc2)c1Cl.O [A438079] ... 10

Now for another entry.
Task: Report IC50 for COc1ccc(CC(=O)NC(N=C(NC#N)Nc2cccc3ncccc23)C(C)(C)C)cc1OC (centres unmarked) [A740003] please.
Result: 1
